Could you please report measured Plant response rating, Crabgrass for the items listed next?
Test system: crabgrass (Digitaria sanguinalis)
Assay: Test C preemergence
Format: in vivo
Settings: preemergence; Rate 125 g/ha; scale 0 to 100, 0 no effect, 100 complete control

>>> df
                                   compound                          property  result_value
0  O=C1C(n2ccc(C3CCC3)n2)SCN1c1cccc(OC(F)(F)F)c1 (centres unmarked) [Compound 38]  Plant response rating, Crabgrass           100
1  O=C1C(n2ccc(C3CCC3)n2)SCN1c1cccc(C(F)(F)F)c1 (centres unmarked) [Compound 37]  Plant response rating, Crabgrass            90
2  CC(C)(C)c1ccn(C2CCN(c3cccc(Cl)c3)C2=O)n1 (centres unmarked) [Compound 43]  Plant response rating, Crabgrass            90
3  COc1cc(OC)cc(N2CCC(n3ccc(C(C)(C)C)n3)C2=O)c1 (centres unmarked) [Compound 71]  Plant response rating, Crabgrass           100
4  CC(C)(C)c1ccn(C2CCN(c3ccc(Cl)c(Br)c3)C2=O)n1 (centres unmarked) [Compound 56]  Plant response rating, Crabgrass            30

Okay, here is my list. What is Plant response rating, Crabgrass for each of these?
1. CCC(C)c1ccn(C2OCN(c3cccc(OC(F)(F)F)c3)C2=O)n1 (centres unmarked) [Compound 67]
2. CC1(c2ccn(C3SCN(c4cccc(OC(F)(F)F)c4)C3=O)n2)CC1 (centres unmarked) [Compound 63]
3. O=C1C(n2ccc(C3CCCCC3)n2)OCN1c1cccc(C(F)(F)F)c1 (centres unmarked) [Compound 51]

Return:
1. 100
2. 100
3. 100

* * *

Tested on: barnyardgrass (Echinochloa crus-galli)
Assay: Test C flooded paddy test
Format: in vivo
Details: flooded paddy test, Rate 125 g/ha; scale 0 to 100 (0 no effect, 100 complete control)
Property: Plant response rating, Barnyardgrass
Answers are plain numbers.

>>> df
                                   compound                              property  result_value
0  COc1cc(N2CCC(n3ccc(C(C)C)n3)C2=O)ccc1Cl (stereo not drawn) [Compound 120]  Plant response rating, Barnyardgrass            50
1  CC1(c2ccn(C3OCN(c4cccc(C(F)(F)F)c4)C3=O)n2)CC1 (stereo not drawn) [Compound 62]  Plant response rating, Barnyardgrass            20
2  CC(C)(C)c1ccn(C2CCN(c3ccc4c(c3)CCC4)C2=O)n1 (stereo not drawn) [Compound 105]  Plant response rating, Barnyardgrass             0

Dear colleague, could you send me Plant response rating, Barnyardgrass for each of the items below? Thanks.
1. CCCC(C)c1ccn(C2CCN(c3cccc(OC)c3)C2=O)n1 (stereo not drawn) [Compound 99]
2. COC(=O)c1cccc(N2CCC(n3ccc(C(C)(C)C)n3)C2=O)c1 (stereo not drawn) [Compound 73]
3. O=C1C(n2ccc(C3CCCCC3)n2)OCN1c1cccc(C(F)(F)F)c1 (stereo not drawn) [Compound 51]
4. Cc1c(F)cc(N2CCC(n3ccc(C(C)(C)C)n3)C2=O)cc1Br (stereo not drawn) [Compound 78]

Return:
0
70
20
0

Provide reported Plant response rating, Barnyardgrass for each item, in the same order as listed.
1. CCCC(C)c1ccn(C2CCN(c3cccc(OCC)c3)C2=O)n1 (stereo not drawn) [Compound 129]
2. CC1(c2ccn(C3SCN(c4cccc(OC(F)(F)F)c4)C3=O)n2)CC1 (stereo not drawn) [Compound 63]

Return:
50
40
